target: Wee1-like protein kinase (Homo sapiens, UniProt P30291); note: in the data inactive means no Kd found up to 30 µM
Sequence (P30291 whole entry): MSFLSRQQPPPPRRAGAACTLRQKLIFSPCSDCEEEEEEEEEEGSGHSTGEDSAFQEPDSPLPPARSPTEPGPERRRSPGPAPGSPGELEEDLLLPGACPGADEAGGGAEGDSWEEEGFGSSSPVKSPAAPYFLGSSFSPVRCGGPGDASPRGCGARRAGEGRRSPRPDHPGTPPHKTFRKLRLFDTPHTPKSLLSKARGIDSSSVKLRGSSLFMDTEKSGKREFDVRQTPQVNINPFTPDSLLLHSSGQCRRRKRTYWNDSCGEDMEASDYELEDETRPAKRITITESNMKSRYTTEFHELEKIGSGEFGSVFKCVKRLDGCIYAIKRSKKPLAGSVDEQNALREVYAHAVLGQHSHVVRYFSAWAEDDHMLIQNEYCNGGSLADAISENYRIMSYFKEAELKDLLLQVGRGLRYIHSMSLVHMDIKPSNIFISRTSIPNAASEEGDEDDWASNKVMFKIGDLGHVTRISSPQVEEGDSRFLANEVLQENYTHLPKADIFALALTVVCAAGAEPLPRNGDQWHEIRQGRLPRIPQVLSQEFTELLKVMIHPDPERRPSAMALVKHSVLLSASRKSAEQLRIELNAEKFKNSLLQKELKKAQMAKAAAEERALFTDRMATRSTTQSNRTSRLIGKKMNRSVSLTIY
Structures can show the parent of a compound that is named as a salt. The source made the active and inactive calls.
Outcome codes: active, inactive

1) Cn1ncc(Cl)c1-c1cc(C(=O)N[C@H](CN)Cc2ccc(F)c(F)c2)oc1Cl
inactive
2) COc1ccc(S(=O)(=O)N(C(C)=O)c2ccccc2/C=C/c2cc[n+]([O-])cc2)cc1
inactive
3) CO[C@H]1C[C@@H]2CC[C@@H](C)[C@@](O)(O2)C(=O)C(=O)N2CCCC[C@H]2C(=O)O[C@H]([C@H](C)C[C@@H]2CC[C@@H](OP(C)(C)=O)[C@H](OC)C2)CC(=O)[C@H](C)/C=C(\C)[C@@H](O)[C@@H](OC)C(=O)[C@H](C)C[C@H](C)/C=C/C=C/C=C/1C
inactive
4) COc1ncc(-c2ccc3nccc(-c4ccnnc4)c3c2)cc1NS(=O)(=O)c1ccc(F)cc1F
inactive
5) CCS(=O)(=O)N1CCN(c2ccc(Nc3ncc(C(N)=O)c(NC4CC4)n3)cc2)CC1 [Cerdulatinib Hydrochloride]
inactive
6) C=CC(=O)N1CCC[C@H](n2c(=O)n(-c3ccc(Oc4ccccc4)cc3)c3c(N)ncnc32)C1
inactive
7) COc1cc(Nc2ncc3c(n2)-c2ccc(Cl)cc2C(c2c(F)cccc2OC)=NC3)ccc1C(=O)O
inactive
8) O=C1NC(=O)[C@@H](c2cn3c4c(cccc24)CCC3)[C@@H]1c1c[nH]c2ccccc12 [TIVANTINIB]
inactive
9) Cc1cccc(-c2nn3c(c2-c2ccnc4ccc(C(N)=O)cc24)CCC3)n1
inactive
10) C=CC(=O)Nc1cc2c(Nc3ccc(F)c(Cl)c3)ncnc2cc1C#CC(C)(C)N1CCN(C)CC1 [AV-412 FREE BASE]
inactive
11) CNC(=O)c1cccc2cc(Oc3ccnc4cc(OCC5(N)CC5)c(OC)cc34)ccc12
inactive
12) COCC(=O)NC/C=C/c1ccc2ncnc(Nc3ccc(Oc4ccc(C)nc4)c(C)c3)c2c1
inactive
13) C[C@@H](NC(=O)c1ncnc(N)c1Cl)c1ncc(C(=O)Nc2cc(C(F)(F)F)c(Cl)cn2)s1
active
14) Cc1nc2cc(-c3nn(C(C)C)c4ncnc(N)c34)ccc2o1
inactive
15) CCn1cc(-c2ccnc3[nH]c(-c4cccc(CN(C)C)c4)cc23)c(-c2ccc(NC(=O)N(C)C)cc2)n1
inactive
